Form field: kon (one value per entry).
Target: SARS-CoV-2 spike S2 protein (SARS-CoV-2, UniProt P0DTC2 686-1213)
State just the number; it will be interpreted in M⁻¹ s⁻¹.

Give its kon value. Item: AB-009074 (antibody, V domains shown) VH: QVQLVESGGGVVQPGRSLRLSCAASGFTFSSYGMHWVRQAPGKGLEWVAVIWYDGSNKYYADSVKGRFTISRDNSKNTLYLQMNSLRAEDTAVYYCAREGLVGATTGFDYWGQGTLVTVSS VL: SYELTQPPSVSVSPGQTARITCSGDALPKKYAYWYQQKSGQAPVLVIYEDSKRPSGIPERFSGSSSGTMATLTISGAQVEDEADYYCYSTDSSGNHGVFGTGTKVTVL 12000

Give its kon value. Item: AB-009083 (antibody, V domains shown) VH: EVHLLESGGGLVQPGGSLTLTCAASGFSFGNYVMGWVRQAPGKGLEWVSSIFGSGANPHYGGSVKGRFTISRDNSQNTLFLQMDSLTAEDTAVYYCARDGGTMVGGIITGGFNYFDSWGQGTLVTVSS VL: EIVLTQSPASLSLSPGGWATLSCRASRSIGNSLAWYQQRPGQAPRLLIYDASNRATGIPARFSGSGSGTDFTLTISSLEPEDFAIYYCQQRNSWPPLYTFGQGTKLEIK 3010

Give its kon value. Item: AB-009123 (antibody, V domains shown) VH: QVQLLQSGAEVRKPGASVKVSCKASGYTFSSYVMHWVRQAPGQGLEWMGWINTGNGNTRYSQKIQGRVTFTIDTAANTVNMEVSSLRSEDTAVYYCAREGLRATHYFDYWGRGTLVTVSS VL: SYELTQPPSVSVSSGQTASIPCSGDRVGDRYVCWYQQKPGQSPVLVIYQDSKRPSGIPERFSGSNSGSTATLTISGTQAIDEADYYCQAWDSSTGGVFGGGTKLTVL 42500
